Hey, just so you know, these numbers are from ChEMBL document CHEMBL1201862.

Tested on: HCC 2998
assayProcedure: NCI tumour cell line growth inhibition, 48 h
Calls of active or inactive are those of the source. Rule as the data show it: active = GI50 up to about 1.1 µM and inactive = higher. Peptide text beside a SMILES is read from it. * marks the point of attachment. Cbz = O=C(OCc1ccccc1)*; CH2Cl = ClC*
A correct response names exactly one class from label 1 = active, label 0 = inactive

Here's what some known entries look like.
[[record]]
compound = "CC(C(=O)c1ccccc1)C1(O)C(=O)Nc2ccc(Cl)cc21 (stereo unspecified)"
category = "label 0"

[[record]]
compound = "CSc1ccc2c(cc1=O)C(NC(=O)c1ccc(OC(C)=O)cc1)CCc1cc(O)c(O)c(O)c1-2 (stereo unspecified)"
category = "label 0"

[[record]]
compound = "COc1ccc2c(CCNC(C)=O)c(C(C)=O)[nH]c2c1"
category = "label 0"

[[record]]
compound = "Cc1cc2c(=O)c3ccc(Cl)cc3[nH]c2c(C(=O)O)c1C"
category = "label 0"

[[record]]
compound = "CCN(CC)CCNC(=O)c1ccccc1Nc1c(Cl)cccc1Cl"
category = "label 0"


Check the results log: what was the call for C=CCP(=O)(CC=C)C(Cl)Cl ?
label 0

Check the results log: what was the call for O=C(O)CCCCn1cnc2c(S)ncnc21 ?
label 0

Check the results log: what was the call for COC(=O)C(Cc1c[nH]c2ccccc12)NC(=O)C(Cc1c[nH]c2ccccc12)NC(=O)OCc1ccccc1 (stereo unspecified) ?
label 0

Check the results log: what was the call for C=Cc1ccc(C)[n+](C[Si](C)(C)O[Si](C)(C)C[n+]2cc(C=C)ccc2C)c1 ?
label 0

Check the results log: what was the call for Cc1cc2c(-c3ccccc3)cc(=O)[nH]c2cc1N ?
label 0

Check the results log: what was the call for CC(C)CC(NC(=O)OCc1ccccc1)C(=O)NC(Cc1ccccc1)C(=O)CCl (stereo not drawn) (Cbz-Leu-Phe-CH2Cl; configuration not given here) ?
label 0

Check the results log: what was the call for CCc1nc2cc(/N=N/c3c(O)ccc4ccccc34)ccc2[nH]1 ?
label 0

Check the results log: what was the call for CC(O)(/C=C/c1ccccc1)P(=O)(O)c1ccccc1 (stereo unspecified) ?
label 0

Check the results log: what was the call for Cc1cc2nc3c(C#N)c(-c4ccccc4)cc(Nc4ccc(Cl)cc4)n3c2cc1C ?
label 0

Check the results log: what was the call for CC(C)=CCc1c(O)cc2oc(-c3ccc(O)cc3O)cc(=O)c2c1O ?
label 0

Check the results log: what was the call for CNn1c(-c2ccccc2)n[nH]c1=O ?
label 0

Check the results log: what was the call for C=CC1=CC(C)C[C@]1(O)C(=O)OC (stereo partly specified) ?
label 1

Check the results log: what was the call for COc1cccc(-c2cc(O)c3cc(N4CCCC4)ccc3n2)c1 ?
label 1

Check the results log: what was the call for CC[C@](C)(O)C(=O)O[C@H]1C(=O)O[C@@H]2C[C@H]3C(C)=C[C@H](O)[C@@H](O)[C@]3(C)[C@H]3[C@@]4(O)OC[C@]32[C@@H]1[C@@H](C)[C@H]4O ?
label 0

---

Tested on: K562
assayProcedure: NCI tumour cell line growth inhibition, 48 h
Activity calls are given as the source filed them. Cut-off read from the data, not from the text of the source: active = GI50 up to about 1.1 µM and inactive = higher.
A correct response names exactly one class from active, inactive

[[record]]
compound = "O=c1c2cc(Br)cc(Br)c2[nH]c(=S)n1-c1ccccc1"
category = "inactive"


Check the results log: what was the call for N#Cc1c(-c2ccccc2)c(/N=N/c2ccc(F)cc2)c(=O)n2c1[nH]c1ccccc12 ?
inactive

Check the results log: what was the call for CC(C)=CCc1c(O)cc2oc(-c3ccc(O)cc3O)cc(=O)c2c1O ?
inactive

Check the results log: what was the call for C[C@]12CCC3=NCCN3C1=CC[C@@H]1[C@@H]2CC[C@@]2(C)[C@H]1CC[C@]2(C)O ?
inactive

Check the results log: what was the call for C/C(=N\NC(=S)N/N=C(\C)c1ccccn1)c1ccccn1 ?
inactive

Check the results log: what was the call for CC(=O)/C=C/C=C(\C)CC/C=C(\C)CC(C)C ?
inactive

Check the results log: what was the call for CC(=O)NCCC1CN(C(=O)/C=C\I)c2ccccc21 (stereo not drawn) ?
inactive

Check the results log: what was the call for N#CC(C#N)=Cc1cccc(Oc2ccccc2)c1 ?
inactive

Check the results log: what was the call for CC(C)NC(=O)O/N=C1\CCC2[C@@H]3CC=C4C[C@@H](OC(=O)NC(C)C)CC[C@]4(C)C3CC[C@]12C (stereo partly drawn) ?
active

Check the results log: what was the call for O=C(N/N=C\c1ccc([N+](=O)[O-])cc1)Nc1cccc2ccccc12 ?
inactive

Check the results log: what was the call for CN(CCN(C)C(=O)CCOS(C)(=O)=O)C(=O)CCOS(C)(=O)=O ?
inactive

---

Test system: SF-539
assayProcedure: NCI tumour cell line growth inhibition, 48 h
The source made the active and inactive calls. Rule as the data show it: active = GI50 up to about 1.1 µM and inactive = higher.
A correct response names exactly one class from active, inactive

[[record]]
molecule = "Nc1ncnc2c1ncn2[C@@H]1O[C@H](COP(=O)(O)OP(=O)(O)OC[C@H]2O[C@@H](OCCCO)[C@H](O)[C@@H]2O)[C@@H](O)[C@H]1O"
category = "inactive"

[[record]]
molecule = "Cc1ccc(C2NC(=O)c3ccccc3N2)c(C)c1 (centres undefined)"
category = "inactive"

[[record]]
molecule = "CN/N=C(\\C)CC(=O)Nc1cccc(Cl)c1C"
category = "inactive"

[[record]]
molecule = "C=C(C(=O)C(=O)Oc1ccc(Cl)cc1)C(=O)c1ccc(C)cc1"
category = "inactive"

[[record]]
molecule = "O=C(O)c1ccc([N+](=O)[O-])c(P(=O)(O)O)c1"
category = "inactive"


Check the results log: what was the call for Cc1ccc(-c2c(C#N)c(-c3ccc(N(C)C)cc3)c(C#N)c(=O)n2NS(=O)(=O)c2ccccc2)cc1 ?
inactive

Check the results log: what was the call for Cc1occc1C(=S)Nc1ccc(Cl)c(/C=N/OC(C)C)c1 ?
inactive

Check the results log: what was the call for COc1cc2c(c(OC)c1OC)-c1ccc(SC)c(=O)cc1[C@@H](NC(=O)c1ccc([N+](=O)[O-])cc1)CC2 ?
active

Check the results log: what was the call for Cc1cc(=O)[nH]c2cc(NC(=O)C(CCCNC(=N)N)NC(=O)OCc3ccccc3)ccc12 (centres undefined) ?
inactive

---

System: SK-MEL-2
assayProcedure: NCI tumour cell line growth inhibition, 48 h
Active and inactive are the calls of the source. Rule as the data show it: active = GI50 up to about 1.1 µM and inactive = higher.
A correct response names exactly one class from 1.0 (active), 0.0 (inactive)

Here's what some known entries look like.
[[record]]
compound = "O=c1/c(=C/c2ccccn2)sc2nc3cc4c(cc3n12)OCCO4"
category = 0.0

[[record]]
compound = "C[C@]12CCC3=NCCN3C1=CC[C@@H]1[C@@H]2CC[C@@]2(C)[C@H]1CC[C@]2(C)O"
category = 0.0

[[record]]
compound = "CCCN(CCC)c1c([N+](=O)[O-])cc(C(N)=O)cc1[N+](=O)[O-]"
category = 0.0

[[record]]
compound = "COc1ccc(-c2onc(-c3ccc([N+](=O)[O-])cc3)c2C2=NCCN2)cc1"
category = 0.0

[[record]]
compound = "[O-][n+]1c2cc(CN3CCOCC3)c(CN3CCOCC3)cc2[n+]([O-])c2c(O)cccc21"
category = 0.0


Check the results log: what was the call for O=C1N/C(=N/N=C/c2c[nH]c3ccccc23)N/C1=C\c1c[nH]c2ccccc12 ?
0.0

Check the results log: what was the call for CN(C)CC1CCCC(CN(C)C)C1=NOC(=O)c1ccccc1 (stereo not given) ?
0.0

Check the results log: what was the call for COc1cccc(C2c3cc4c(cc3OC(Nc3ccccc3)C2C)OCO4)c1OC (stereo not given) ?
0.0

Check the results log: what was the call for O=C(O)CCC(=O)c1ccc[nH]1 ?
0.0

Check the results log: what was the call for C=CC1=CC(C)C[C@]1(O)C(=O)OC (stereo not given in full) ?
1.0

---

Tested on: U-251
assayProcedure: NCI tumour cell line growth inhibition, 48 h
Calls of active or inactive are those of the source. Cut-off read from the data, not from the text of the source: active = GI50 up to about 1.1 µM and inactive = higher.
A correct response names exactly one class from active, inactive

Here's what some known entries look like.
[[record]]
compound = "COC(=O)C1=C2SCc3ccc(cc3)CSC3=C(C(=O)OC)SC(=C(S2)S1)S3"
category = "inactive"

[[record]]
compound = "Cc1cnc(/C=N\\NC(N)=S)c2cccc(N)c12"
category = "active"

[[record]]
compound = "O=c1cccccc1NCCCCNc1cccccc1=O"
category = "inactive"

[[record]]
compound = "COc1cc(C2c3cc4c(cc3OC(NNS(=O)(=O)c3ccc(C)cc3)C2C)OCO4)cc(OC)c1O (stereo not given)"
category = "inactive"


Now look at this entry.
Check the results log: what was the call for COc1ccc2c(c1)[n+]([O-])c(-c1ccc([N+](=O)[O-])cc1)c(N)[n+]2[O-] ?
inactive

---

Tested on: HCT-15
Could you mark each record t if its GI50 falls strictly under 10 µM, and f if it equals or exceeds it?

[[record]]
compound = "CC(=O)OC1(C#N)CC2OC1C1NC21 (stereo not drawn)"
category = "f"


For COc1cc(O)c2c(c1)C(=O)C=C(Cl)C2=O , is the recorded GI50 below the cut-off of 10 µM?
f

For O=C(Nc1c(O)[nH]c(=S)[nH]c1=O)c1ccccc1 , is the recorded GI50 below the cut-off of 10 µM?
f

For COc1ccc(Nc2nc3cc(C(F)(F)F)ccc3nc2C(=O)O)cc1OC , is the recorded GI50 below the cut-off of 10 µM?
f

For N#Cc1c(-c2ccccc2)c(/N=N/c2ccc(F)cc2)c(=O)n2c1[nH]c1ccccc12 , is the recorded GI50 below the cut-off of 10 µM?
t
